tested on: PGE2 secretion in human promyelocytic leukemia cells (HL-60 cells); experiment: PGE2 secretion in human promyelocytic leukemia (HL-60) cells (A23187-induced), fluoride and NSAIDs alone or combined; settings: Homo sapiens, HL-60, read-out: IC50, A23187-induced PGE2 secretion, in the absence of fluoride;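 also: fluoride given as NaF, each condition run in duplicate, signals corrected for background and referenced to control, IC50 obtained by nonlinear regression Hill fitting of the curve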
outcome_measure: IC50 (nM)
Give bare numbers, in nM.

Exercise: Please give the documented IC50 of COc1ccc2c(c1)c(CC(=O)O)c(C)n2C(=O)c1ccc(Cl)cc1 [indomethacin]
Solution: 0.92
